Overview of recorded Conc (mg/L) 3 min for various molecules
test: Dissolution measurement assay (apparent solubility) in FaSSIF, pH 6.5; format: physicochemical; settings: 3 min, pH 6.5
Structures can show the parent of a compound that is named as a salt.
MEASURE_NAME: Conc (mg/L) 3 min

>  <MOLECULE>
CCCS(=O)(=O)Nc1ccc(F)c(C(=O)c2c[nH]c3ncc(-c4ccc(Cl)cc4)cc23)c1F [Exp 164, vemurafenib]

>  <RESULT_NUMBER>
0.3

$$$$
>  <MOLECULE>
Cc1nc(Nc2ncc(C(=O)Nc3c(C)cccc3Cl)s2)cc(N2CCN(CCO)CC2)n1 [Exp 138, dasatinib]

>  <RESULT_NUMBER>
34.5

$$$$
>  <MOLECULE>
C[C@@H](Oc1cc(-c2cnn(C3CCNCC3)c2)cnc1N)c1c(Cl)ccc(F)c1Cl [Exp 150, crizotinib]

>  <RESULT_NUMBER>
89.3

$$$$
>  <MOLECULE>
CNC(=O)c1ccccc1Sc1ccc2c(/C=C/c3ccccn3)n[nH]c2c1 [Exp 157, axitinib]

>  <RESULT_NUMBER>
0.6

$$$$
>  <MOLECULE>
CNC(=O)c1cc(Oc2ccc(NC(=O)Nc3ccc(Cl)c(C(F)(F)F)c3)cc2)ccn1 [Exp 142, sorafenib tosylate]

>  <RESULT_NUMBER>
59.1

$$$$
